Assay: Volume of distribution at steady state Sprague-Dawley rat at 1 mg/kg, iv
Format: ADME, organism-based
Set-up: dose 1 mg/kg, route intravenous
Conditions: in vivo, read-out: Vdss
quantity-measured: Vd (L/kg)
Give the value, in units of L/kg, as a plain number.

Worked set:
In [3]: df
Out[3]:
                    structure_smiles_string  quantity_measured  value_observed
0  c1ccc(-c2c(-c3ccc(OCCn4ccnc4)cc3)oc3nccc(NCCN4CCNCC4)c23)cc1                 Vd             7.2
1  c1ccc(-c2c(-c3ccc(OCCN4CCOCC4)cc3)oc3nccc(NCCN4CCNCC4)c23)cc1                 Vd             4.7
2  c1ccc(-c2oc3nccc(NCCN4CCNCC4)c3c2-c2ccccc2)cc1                 Vd             2.3

Recorded Vd for `c1ccc(-c2c(-c3ccc(OCCN4CCCCC4)cc3)oc3nccc(NCCN4CCNCC4)c23)cc1` , please?
60

---

Let's go through some recorded pIC50 values for UniProtKB P35968 together.
Sequence (P35968 whole entry): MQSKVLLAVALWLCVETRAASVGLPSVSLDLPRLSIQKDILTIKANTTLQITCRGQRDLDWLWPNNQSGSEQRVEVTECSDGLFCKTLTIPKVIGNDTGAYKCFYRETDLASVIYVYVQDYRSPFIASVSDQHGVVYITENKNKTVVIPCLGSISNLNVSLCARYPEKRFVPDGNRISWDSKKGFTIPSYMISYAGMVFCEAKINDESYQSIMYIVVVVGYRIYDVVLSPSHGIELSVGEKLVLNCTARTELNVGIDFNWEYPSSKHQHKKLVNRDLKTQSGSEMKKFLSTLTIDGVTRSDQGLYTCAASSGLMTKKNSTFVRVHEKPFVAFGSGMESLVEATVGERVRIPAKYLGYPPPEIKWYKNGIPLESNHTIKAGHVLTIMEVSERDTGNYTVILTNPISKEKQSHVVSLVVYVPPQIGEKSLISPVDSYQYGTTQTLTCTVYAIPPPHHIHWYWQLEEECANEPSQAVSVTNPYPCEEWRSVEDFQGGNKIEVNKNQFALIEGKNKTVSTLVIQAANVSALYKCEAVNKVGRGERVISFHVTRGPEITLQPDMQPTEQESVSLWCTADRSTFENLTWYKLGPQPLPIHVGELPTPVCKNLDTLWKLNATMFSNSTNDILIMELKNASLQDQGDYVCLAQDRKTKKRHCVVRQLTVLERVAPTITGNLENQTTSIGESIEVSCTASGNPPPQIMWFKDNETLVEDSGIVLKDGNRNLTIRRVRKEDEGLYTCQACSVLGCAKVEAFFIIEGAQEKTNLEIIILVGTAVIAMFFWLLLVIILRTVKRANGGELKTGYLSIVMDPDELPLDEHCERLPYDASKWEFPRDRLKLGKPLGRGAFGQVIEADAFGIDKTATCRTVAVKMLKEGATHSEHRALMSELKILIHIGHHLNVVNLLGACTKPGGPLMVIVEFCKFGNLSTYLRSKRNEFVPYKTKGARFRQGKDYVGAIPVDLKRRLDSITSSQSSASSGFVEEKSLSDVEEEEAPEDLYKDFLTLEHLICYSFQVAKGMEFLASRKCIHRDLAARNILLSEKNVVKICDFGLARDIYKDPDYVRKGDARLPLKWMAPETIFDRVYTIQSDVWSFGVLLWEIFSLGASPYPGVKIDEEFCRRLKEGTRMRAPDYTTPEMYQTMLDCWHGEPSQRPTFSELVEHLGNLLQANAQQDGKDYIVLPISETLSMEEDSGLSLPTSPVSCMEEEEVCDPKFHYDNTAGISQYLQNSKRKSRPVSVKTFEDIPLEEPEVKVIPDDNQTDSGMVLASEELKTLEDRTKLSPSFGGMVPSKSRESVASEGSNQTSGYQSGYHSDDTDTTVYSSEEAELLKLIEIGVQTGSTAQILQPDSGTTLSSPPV
The meaning of pIC50 here: minus log10 of the concentration in molar units.

>>> df
                    structure_smiles_string  value_observed
0  c1ccc(-c2oc3nccc(NCCN4CCNCC4)c3c2-c2ccccc2)cc1            6.44
1  c1ccc(-c2c(-c3ccc(OCCN4CCOCC4)cc3)oc3nccc(NCCN4CCNCC4)c23)cc1            7.24

Recorded pIC50 for `c1ccc(-c2oc3nccc(NC[C@@H]4CCCO4)c3c2-c2ccccc2)cc1` , please?
5.38

Now this one: `CC(C)N(CCOc1ccc(-c2oc3nccc(NCCN4CCNCC4)c3c2-c2ccccc2)cc1)C(C)C`
7.17

Now this one: `c1ccc(-c2oc3ncnc(NCCN4CCNCC4)c3c2-c2ccccc2)cc1`
5.59

---

Target: Tyrosine-protein kinase Lck (Homo sapiens)
Sequence (P06239 whole entry): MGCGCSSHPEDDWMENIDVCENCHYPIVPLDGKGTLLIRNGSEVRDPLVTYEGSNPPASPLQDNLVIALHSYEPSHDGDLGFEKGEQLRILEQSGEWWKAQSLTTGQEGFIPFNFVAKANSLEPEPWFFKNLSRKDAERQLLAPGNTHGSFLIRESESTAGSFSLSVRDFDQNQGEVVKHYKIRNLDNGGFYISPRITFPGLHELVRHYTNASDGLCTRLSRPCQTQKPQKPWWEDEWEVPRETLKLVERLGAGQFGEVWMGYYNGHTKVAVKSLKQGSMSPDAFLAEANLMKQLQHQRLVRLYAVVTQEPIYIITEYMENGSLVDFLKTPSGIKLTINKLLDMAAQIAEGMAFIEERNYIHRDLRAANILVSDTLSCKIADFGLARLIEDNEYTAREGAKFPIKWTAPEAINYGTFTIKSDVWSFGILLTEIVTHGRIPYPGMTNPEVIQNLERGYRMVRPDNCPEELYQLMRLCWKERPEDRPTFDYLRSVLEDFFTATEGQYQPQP
quantity-measured: IC50 (nM)
Give the value, in units of nM, as a plain number.

Recorded IC50 for `c1ccc(-c2c(-c3ccc(OCCN4CCCCC4)cc3)oc3nccc(NCCN4CCNCC4)c23)cc1` , please?
29

---

Assay: Clearance in Sprague-Dawley rat at 1 mg/kg, iv
Format: ADME, organism-based
Design: dose 1 mg/kg, route intravenous
Settings: in vivo
quantity-measured: clearance (mL/min/kg)
Give the value, in units of mL/min/kg, as a plain number.

Worked set:
                    structure_smiles_string  value_observed
0  c1ccc(-c2oc3nccc(NCCN4CCNCC4)c3c2-c2ccccc2)cc1              20
1  c1ccc(-c2c(-c3ccc(OCCn4ccnc4)cc3)oc3nccc(NCCN4CCNCC4)c23)cc1             192
2  c1ccc(-c2c(-c3ccc(OCCN4CCCCC4)cc3)oc3nccc(NCCN4CCNCC4)c23)cc1             188

Attention now shifts to the item below.
Recorded clearance for `c1ccc(-c2c(-c3ccc(OCCN4CCOCC4)cc3)oc3nccc(NCCN4CCNCC4)c23)cc1` , please?
128

---

The entries below come with measured half-life values attached.
Test: Half life in Sprague-Dawley rat at 1 mg/kg, iv
Format: ADME, organism-based
Set-up: dose 1 mg/kg, route intravenous
Conditions: Sprague-Dawley, in vivo
# answer = value followed by unit

>>> df
                    structure_smiles_string  value_observed
0  c1ccc(-c2c(-c3ccc(OCCN4CCOCC4)cc3)oc3nccc(NCCN4CCNCC4)c23)cc1           5.3 h
1  c1ccc(-c2c(-c3ccc(OCCn4ccnc4)cc3)oc3nccc(NCCN4CCNCC4)c23)cc1           0.8 h

Recorded half-life for `c1ccc(-c2oc3nccc(NCCN4CCNCC4)c3c2-c2ccccc2)cc1` , please?
1.5 h

Now this one: `c1ccc(-c2c(-c3ccc(OCCN4CCCCC4)cc3)oc3nccc(NCCN4CCNCC4)c23)cc1`
4.7 h
